procedure details: basal S. cerevisiae growth modulation, no modifier, primary screen, OD600, strain BY4716, 24 h, basal condition (AID 1173)
condition: OD600, 24 h, higher = more signal, called active from +8 up or from −8 down
Assign 1.0 whenever z-score does not fall below 0.5; assign 0.0 whenever it does.

Illustrative cases are given below, each with its answer.
Textbook exercise: given the entry `COC(=O)C(CC#Cc1ccc2c(c1)[C@]1(C(=O)N2)[C@H](c2ccccc2OCCO)N2[C@H](c3ccccc3)[C@H](c3ccccc3)OC(=O)[C@H]2[C@@H]1C(=O)NC[C@H](O)c1ccccc1)C(=O)OC` , state whether its z-score is greater than or equal to 0.5.
1.0

Textbook exercise: given the entry `COCCOC(=O)N1C(=O)[C@@]2(c3cc(C#CCNC(N)=O)ccc31)[C@H](C(=O)N1CCc3cc(OC)c(OC)cc3C1)[C@H]1C(=O)O[C@H](c3ccccc3)[C@H](c3ccccc3)N1[C@@H]2c1ccccc1OCCO` , state whether its z-score is greater than or equal to 0.5.
1.0

Textbook exercise: given the entry `COCCOC(=O)N1C(=O)[C@@]2(c3cc(C#CC4=CCCCC4)ccc31)[C@H](C(N)=O)[C@H]1C(=O)O[C@H](c3ccccc3)[C@H](c3ccccc3)N1[C@@H]2c1ccccc1OCCO` , state whether its z-score is greater than or equal to 0.5.
0.0

Textbook exercise: given the entry `COC(=O)[C@@]1(Cc2ccccc2N=[N+]=[N-])N=C(c2ccc(OCCCO)cc2)O[C@H]1c1ccccc1N=[N+]=[N-]` , state whether its z-score is greater than or equal to 0.5.
0.0

Textbook exercise: given the entry C=CCC(OC(C)=O)[C@@H]1[C@@H](N(Cc2cccc3ccccc23)C(=O)c2cccc3ccccc23)c2cc(OCCCO)ccc2N1C(=O)c1ccc(-c2ccccc2)cc1 (stereo partly specified) , state whether its z-score is greater than or equal to 0.5.
0.0

***
Textbook exercise: given the entry `C[C@@H]1ON(c2ccc(C(=O)OC(C)(C)C)cc2)[C@H](c2ccc(O)cc2)[C@H]1C(=O)N1C(=O)OC[C@H]1Cc1ccccc1` , state whether its z-score is greater than or equal to 0.5.
0.0

* * *

procedure details: modulators of S6 phosphorylation in cells, primary screen, cell-based, A549, cytoblot, luminescence, serum-stimulated (AID 1158);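 note: serum-stimulated A549 lung adenocarcinoma cells; signal is phosphorylated S6 detected by cytoblot immunostaining with HRP secondary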
condition: A549 phospho-S6 cytoblot, 5 h, higher = more signal
Kindly supply the reported z-score values for the records listed here.

Determine from records and report z-score for CC(C)(C)OC(=O)CC[C@]1(C(=O)NCC(O)CO)N=C(c2ccc(OCCCO)cc2)O[C@H]1c1ccccc1 (some centres undefined)
2.01

Go through the items and report each one's z-score.
1. CC(C)(C)N1CC=CC23O[C@@H]4C=CCCOC(=O)C4[C@H]2C(=O)N(CCO)[C@@H]3C1=O (some centres undefined)
2. O=C1O[C@@H](c2ccccc2)[C@@H](c2ccccc2)N2[C@@H](c3ccc(O)cc3)[C@]3(C(=O)Nc4ccc(C#CC5=CCCCC5)cc43)[C@@H](C(=O)NC[C@H](O)c3ccccc3)[C@H]12
3. C=C(C)[C@@H]1CC=C(C(O)C2C=CC3C(=O)N(c4ccccc4)C(=O)C3N2Nc2ccccc2F)CC1 (some centres undefined)

[0.461, 0.0825, -1.23]

* * *

procedure details: small-molecule binders of probe aNOTCH3, primary screen, biochemical, small-molecule microarray, 635/667 nm fluorescence (AID 1120);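 note: probe is a biotin-tagged antibody raised against NOTCH3 rather than NOTCH3 protein; score merges spot fluorescence near 667 nm with spot signal to noise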
condition: higher = more signal
Kindly supply the reported composite z-score values for the records listed here.
Answers are plain numbers.

Determine from records and report composite z-score for `CCOC(=O)C1=CC[C@@H](c2ccccc2C(F)(F)F)N(S(=O)(=O)c2ccc(C)cc2)[C@H]1c1ccc(C#N)cc1`
0.223

Determine from records and report composite z-score for `COCCOC(=O)N1C(=O)[C@@]2(c3cc(C#CCCO)ccc31)[C@H](C(=O)Nc1nc3ccccc3s1)[C@H]1C(=O)O[C@H](c3ccccc3)[C@H](c3ccccc3)N1[C@@H]2c1ccccc1OCCO`
0.436

Now for a further compound.
Determine from records and report composite z-score for `COC(=O)[C@@]1(Cc2ccccc2)[C@H]2c3cc(C(=O)N(C)C)n(CCN4CNCC4=O)c3C[C@H]2CN1C(=O)c1ccccc1`
0.571

* * *

Kindly supply the reported z-score values for the records listed here.
procedure details: modulators of HCV replicon luciferase signal, primary screen, HCV replication inhibitor project, Huh7 cells, luciferase reporter (AID 1109);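 note: huh7 hepatoma cells harbouring a luciferase neomycin HCV replicon reporter; luciferase luminescence as measure of HCV replicon replication; test concentration not given here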
condition: 48 h, higher = more signal
Numbers only.

These recorded examples may help you get a feel for the data.
Determine from records and report z-score for `COCCOC(=O)N1C(=O)[C@@]2(c3cc(C#Cc4ccc(OC)cc4)ccc31)[C@H](c1ccccc1OCCO)N1[C@H](c3ccccc3)[C@H](c3ccccc3)OC(=O)[C@H]1[C@@H]2C(=O)N1CCCCCCC1`
-1.36

Determine from records and report z-score for `CC(C)(C)OC(=O)CC[C@]1(C(=O)NCc2ccccc2)N=C(c2ccc(OCCCO)cc2)O[C@H]1c1ccccc1CN=[N+]=[N-]`
-2.11

Determine from records and report z-score for `COc1ccc([Si](C)(C)[C@H]2[C@H](CC(=O)N(CCO)Cc3ccccc3)O[C@@]3(C(=O)N(Cc4cccc(N5CCOC5=O)c4)c4ccccc43)[C@@H]2C)cc1`
-4.06

Go through the items and report each one's z-score.
1. NC(=O)NCC#Cc1ccc2c(c1)[C@]1(C(=O)N2)[C@H](C(=O)O)[C@H]2C(=O)O[C@H](c3ccccc3)[C@H](c3ccccc3)N2[C@@H]1c1ccc(OCCO)cc1
2. O=C(NCC(F)(F)F)[C@@H]1c2ccccc2C(=O)N(Cc2ccc(OC(F)(F)F)cc2)[C@H]1c1ccc(CO)cc1
3. C=C(/C(=C/C[C@H](OC(=O)c1ccncc1)c1ccc(CO)o1)c1cc(C(=O)OC)ccc1OC)C(C)C

[-0.327, -0.971, -0.706]

* * *

Test system: Sam68 (KHDRBS1)
procedure details: Sam68 small-molecule binders, primary screen, biochemical, small-molecule microarray, 635 nm fluorescence (AID 1125);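 note: score merges 667 nm channel intensity with signal to noise over triplicate slides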
condition: small-molecule microarray binding, higher = more signal
Kindly supply the reported composite z-score values for the records listed here.

These recorded examples may help you get a feel for the data.
Determine from records and report composite z-score for `Cc1ccc(S[C@]2(C(=O)NCC(F)(F)F)CC(=O)N(C3CCCCC3)[C@@H]2c2ccc(CO)cc2I)cc1`
1.3

Determine from records and report composite z-score for `CCC[C@@H]1C[C@@]1(CCC)[C@@H](NC(=O)OCc1ccccc1)c1ccc(-c2ccccc2)cc1`
-0.303

Determine from records and report composite z-score for `[N-]=[N+]=NCc1ccccc1C[C@@]1(C(=O)N2CCCCC2)N=C(c2ccc(OCCCO)cc2)O[C@@H]1c1ccccc1`
1.07

Determine from records and report composite z-score for Cc1cc(C)c(C(O)C2C=CC3C(=O)NC(=O)C3N2Nc2ccc(Cl)cc2Cl)c(C)c1 (centres undefined)
1.1

Determine from records and report composite z-score for `COCCOC(=O)N1C(=O)[C@@]2(c3cc(C#Cc4ccc(OC)cc4)ccc31)[C@H](c1ccc(O)cc1)N1[C@H](c3ccccc3)[C@H](c3ccccc3)OC(=O)[C@H]1[C@@H]2C(=O)N1CCCCCCC1`
0.722

Determine from records and report composite z-score for `COc1ccc([Si](C)(C)[C@H]2[C@H](CCO)O[C@@]3(C(=O)N(Cc4cccc(N5C(=O)COc6ccccc65)c4)c4ccccc43)[C@@H]2C)cc1`
0.297

Go through the items and report each one's composite z-score.
1. COC(=O)CCCCCCC(=O)Nc1ccc(NC(=O)CCCC[P+](c2ccccc2)(c2ccccc2)c2ccccc2)cc1
2. COc1ccc(NC(=O)O[C@H]2[C@H](OC(=O)Nc3ccccc3)[C@H](OC(=O)Nc3ccccc3)[C@@H](OC)O[C@@H]2CO)cc1
3. CC(=O)NCCCC[C@@H]1NC(=O)[C@H]2C[C@@H](C(=O)NCCCC[N+](C)(C)C)[C@@H](c3cccc(OCCO)c3)N2C1=O
4. CC[C@H]1C2=C3C(CC[C@H]4C(OCc5ccc(F)cc5C(F)(F)F)OC[C@](C)([C@@H]34)N(C(=O)OC(C)(C)C)C2)C(COC)C1COC (some centres undefined)

[0.559, 1.31, 0.719, 0.0783]

Go through the items and report each one's composite z-score.
1. O=C1C[C@@](C(=O)NCCN2CCOCC2)(c2ccc([N+](=O)[O-])cc2)[C@@H](c2ccc(CO)cc2I)N1C1CCCCC1
2. CCOC(=O)C[C@H]1[C@H](OC(=O)c2cc3ccccc3oc2=O)[C@@H](NC(=O)c2ccc(-c3ccccc3)cc2)c2cc(OCCCO)ccc2N1C(=O)c1ccc2ccccc2n1
3. CC(C)Cc1ccc(CN2CC[C@@H](NC(=O)Nc3ccccc3)C2)cc1
4. COC(=O)c1c(CC[C@@H](CO)NC(=O)N2CCC[C@H]2Cn2cc(Cc3ccccc3)nn2)oc(C(C)=O)c1C(=O)OC

1. 0.761
2. 1.32
3. -0.0489
4. 0.694
